- experiment summary: yeast display, Sf9 membrane polyspecificity reagent, FACS + sequencing; frameworks hold sequencing errors
quantity measured: polyreactivity (PSR sort gate)

Guide cases for polyreactivity (PSR sort gate), answers given:
QVQLVESGGGLVQAGGSLRLTCAASGRIFGRNTMGWYRQAPGKEMELVAAISSSGGSTRYADSVKGRFTISRDNAKNTVYIQMNSLKPEDTALYYCAAVRNRHGYDYWGKGTQVTVSS: high polyreactivity
QVQLVESGGGLVQAGGSLRLSCAASGITFNPYVMGWYRQAPGTERELVAVITSGGSTNYADSVKGRFTISRDNAKNTVYLQMNSLKPEDTAVYYCNVDRRPYYVWRVTYDYWGQGTQVTVSS: low polyreactivity
QVQLVESGGGLVQAGGSLRLSCAASGSTFTHYAMGWYRQAPGKERELVAAITSSGGSTYYADSVKGRFTISRDNAKNTDYLQMNSLKPVDTAVYYCAARGSYRNRYRHDYWGQGTQVTVSS: high polyreactivity
QVQLVESGGGLVQAGGSLRLSCAAYGSIFTRNAMGWYRQAPGKERELVATITSNDGSTNYADSVKGRFTISRDNAKNTVYLQMISLKPEDTAVYYCNRSYGVYSEFDYWGQGTQVTVSS: low polyreactivity
QVQLVESGGGLVQAGGSLRLSCAASGRTFFPYAMGWYRQAPGKEREFVAAITKTDDTTYYADSVKGRFTISRDNAKNTVYLQMNSLKPEDTAVYYCNAGDTQIRFYYWGQGTQVNVSS: low polyreactivity

Which polyreactivity (PSR sort gate) value is on record for QVQLVESGGGLVQAGGSLRLSCAASGSIFIRNAMGWYRQAPGKERELVAAISWGGARTYYADSVKWRFTISRDNAKNTVYLQMNSLKPEDTAVYYCNALNVRGNKFDYWGQGTQVSVSS ?
high polyreactivity

Which polyreactivity (PSR sort gate) value is on record for QVQLVESGAGLVQAGGSLRLSCAASGSTFGRNAMGWYRQPPGKERELVASISSGGSTYYADSVKGRFTISRDNAKNTVYLQMNSLKPEDTAVYYCAKDWVYEISYYYYELDYWGQGTQVTVSS ?
low polyreactivity

Which polyreactivity (PSR sort gate) value is on record for QVQHVESGGCLVQAGGSLRLSCAASGITFEWYAMGWYRQAPGKESELVADITSGDSTNYADSVKGRFTISRDNAQNTVYLQMNSLKPEDTAVYYWAATFIGQFFSWYYYWGQGTQVTVSS ?
low polyreactivity

Which polyreactivity (PSR sort gate) value is on record for QVQLVESGGGLVQAGGSLRLSCAASGIIFPYYTMGWYRQAPGKERELVARITNGGRTYYADSVKGRFTISRDNAKNTVYLQMNSLKPEDTGVYYCAADSRYDYEYWGQGTQVTVSS ?
high polyreactivity

Which polyreactivity (PSR sort gate) value is on record for QVHLLESGGALVQAGGRLRLSCAASGRIFKTYAMGWYRQAPGKELEFVAAITASGGRTYYADSVKGRFTISRDNAKNTVYLQMNSLIPEDTAGYYCNARLVYYSYEEMDYWGQGTQVTVSS ?
low polyreactivity

Which polyreactivity (PSR sort gate) value is on record for QVQLVESGGGLVQAGGSLRLSCAASGRTFPYYAMGWYRQATGKERELVAAIRSSGDRTYYADSVKGRFTISRDNAKNTVYLQMNSLKPEDTAVYYCNKVFLRSRRYYWGQGTQVTVSS ?
high polyreactivity
